assay.overview: Aqueous solubility of the compound in simulated intestinal fluid at pH 4.5
Format: ADME
test.parameters: simulated gi fluid
measured.endpoint: solubility

{"columns": ["line.notation", "measured.result"],
 "data": [
  ["C#Cc1cnc2[nH]cc(C(=O)c3c(F)ccc(NS(=O)(=O)CCC)c3F)c2c1", "Insoluble"],
  ["COc1ccnc2[nH]cc(C(=O)c3c(F)ccc(NS(=O)(=O)c4cccc(F)c4)c3F)c12", "Soluble"],
  ["COc1cnc2[nH]cc(C(=O)c3c(F)ccc(NS(=O)(=O)c4cc(F)ccc4F)c3F)c2c1", "Insoluble"],
  ["Cc1cnc2[nH]cc(C(=O)c3c(F)ccc(NS(=O)(=O)c4cc(F)ccc4F)c3F)c2c1", "Insoluble"],
  ["CCCS(=O)(=O)Nc1ccc(F)c(C(=O)c2c[nH]c3ncc(-c4ccc(C#CCN(CC)CC)nc4)cc23)c1F", "Insoluble"],
  ["CCCS(=O)(=O)Nc1ccc(F)c(C(=O)c2c[nH]c3ncc(-c4ccc(S(N)(=O)=O)cc4)cc23)c1F", "Insoluble"],
  ["COc1ncc(-c2cnc3[nH]cc(C(=O)c4c(F)ccc(NS(=O)(=O)c5c(F)cccc5F)c4F)c3c2)cn1", "Insoluble"]
]}

Now look at this one.
Exercise: Quick one: give measured solubility for CCCS(=O)(=O)Nc1ccc(F)c(C(=O)c2c[nH]c3ncc(-c4ccc(OCCN5CCOCC5)nc4)cc23)c1F
Key: Soluble

---

assay.overview: Aqueous solubility of the compound in simulated intestinal fluid at pH 4.5
Format: ADME
test.parameters: simulated gi fluid
measured.endpoint: solubility

Here is how some compounds turned out for solubility.
{"columns": ["line.notation", "solubility"],
 "data": [
  ["CCCS(=O)(=O)Nc1cccc(C(=O)c2c[nH]c3ncc(-c4cnc(N(C)C)nc4)cc23)c1F", "Insoluble"],
  ["CCCS(=O)(=O)Nc1ccc(F)c(C(=O)c2c[nH]c3ncc(-c4ccc(S(=O)(=O)N(C)C)cc4)cc23)c1F", "Insoluble"],
  ["CCCS(=O)(=O)Nc1ccc(F)c(C(=O)c2c[nH]c3ncc(-c4ccc(OC)nc4OC)cc23)c1F", "Insoluble"],
  ["O=C(c1c(F)ccc(NS(=O)(=O)c2ccccc2F)c1F)c1c[nH]c2nccc(Cl)c12", "Soluble"],
  ["CCCS(=O)(=O)Nc1ccc(F)c(C(=O)c2c[nH]c3ncc(-c4cncnc4)cc23)c1F", "Soluble"],
  ["CCCS(=O)(=O)Nc1ccc(F)c(C(=O)c2c[nH]c3ncc(-c4ccc(OCCN5CCCC5)nc4)cc23)c1F", "Soluble"]
]}

Exercise: Quick one: give measured solubility for N#Cc1cnc2[nH]cc(C(=O)c3c(F)ccc(NS(=O)(=O)c4ccccc4)c3F)c2c1
Key: Insoluble

Exercise: Quick one: give measured solubility for Cc1cnc2[nH]cc(C(=O)c3c(F)ccc(NS(=O)(=O)c4cccnc4)c3F)c2c1
Key: Soluble

---

assay.overview: Aqueous solubility of the compound in hepes buffer at pH 7.4
Type: physicochemical
measured.endpoint: solubility

Here is how some compounds turned out for solubility.
{"columns": ["line.notation", "measured.result"],
 "data": [
  ["CCCS(=O)(=O)Nc1ccc(F)c(C(=O)c2c[nH]c3ncc(-c4ccc(N5CCCC5)nc4)cc23)c1F", "Insoluble"],
  ["CCCS(=O)(=O)Nc1ccc(F)c(C(=O)c2c[nH]c3ncc(-c4ccc(OCCCN(C)C)nc4)cc23)c1F", "Insoluble"],
  ["COc1ccnc2[nH]cc(C(=O)c3c(F)ccc(NS(=O)(=O)c4cccc(F)c4)c3F)c12", "Soluble"],
  ["CCCS(=O)(=O)Nc1ccc(F)c(C(=O)c2c[nH]c3ncc(-c4ccc(OCCCN5CCOCC5)nc4)cc23)c1F", "Insoluble"],
  ["CCCS(=O)(=O)Nc1ccc(F)c(C(=O)c2c[nH]c3ncc(-c4ccc(C)nc4)cc23)c1F", "Insoluble"],
  ["Cc1cnc2[nH]cc(C(=O)c3c(F)ccc(NS(=O)(=O)c4cc(F)ccc4F)c3F)c2c1", "Soluble"],
  ["Cc1cnc2[nH]cc(C(=O)c3c(F)ccc(NS(=O)(=O)c4c(F)cccc4F)c3F)c2c1", "Soluble"]
]}

Now look at this one.
Exercise: Quick one: give measured solubility for O=C(c1c(F)ccc(NS(=O)(=O)c2cccc(F)c2)c1F)c1c[nH]c2nccc(Cl)c12
Key: Soluble

This collection of values is drawn from ChEMBL document CHEMBL3879902.
